# test.protocol: Cytotoxic concentration (CC50) test, MTS, HEK-293
# Type: cell-based
# run.conditions: human, HEK-293 cells, HEK-293, 48 h
# Method: LLC/MK2, THP-1, HEK-293, HepG2, or Huh-7 cells were seeded at 10^4 cells per well of 96-well plate and incubated overnight. […] Huh-7 cytotoxicity was assessed by the Alamar Blue assay (Invitrogen®, Waltham, MA, USA) and read by fluorometry at the excitation and emission wavelengths at 570 and 600 nm, respectively. […] Cytotoxic concentrations (CC50) were calculated while using non-linear regression analysis and the results were reported as means and standard deviation of three independent experiments.
measured.parameter: CC50 at 48 h (µM)
Express it in µM; write the number only.

Query: Recorded CC50 at 48 h for O=C1CC(c2ccccc2)Oc2c(Br)c(O)c(Br)c(O)c21 (centres unmarked) [TH011, 6,8-dibromo-5,7-dihydroxyflavanone] , please?
Reply: 93.2
